- TARGET UNDER TEST: human neutrophil elastase (HNE) (Homo sapiens, UniProt P08246)
- Sequence (P08246 30-267): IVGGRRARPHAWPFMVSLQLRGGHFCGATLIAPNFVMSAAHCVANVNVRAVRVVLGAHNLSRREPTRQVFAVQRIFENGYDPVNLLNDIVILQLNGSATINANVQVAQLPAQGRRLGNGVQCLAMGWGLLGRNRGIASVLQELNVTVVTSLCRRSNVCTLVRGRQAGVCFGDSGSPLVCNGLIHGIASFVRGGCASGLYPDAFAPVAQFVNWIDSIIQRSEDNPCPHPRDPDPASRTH
- TEST DETAILS: Kinetic analysis of the inhibition of human neutrophil elastase (Lineweaver-Burk, Dixon, secondary plots)
- CONDITIONS: secondary plot of slope versus inhibitor concentration; read-out: Ki (enzyme-inhibitor dissociation constant)
METRIC: Ki (nM)

>>> measured_number("CCC1(CC)C(=O)N(c2ccc(-c3csc(Nc4c(F)c(F)c(F)c(F)c4F)n3)cc2)C1=O")
138
>>> measured_number("CCC1(CC)C(=O)N(c2ccc(-c3csc(Nc4ccc5[nH]ncc5c4)n3)cc2)C1=O")
137
>>> measured_number("CCC1(CC)C(=O)N(c2ccc(-c3csc(Nc4ccc(F)cc4)n3)cc2)C1=O")
72.2
>>> measured_number("CCC1(CC)C(=O)N(c2ccc(-c3csc(Nc4cc(C)cc(C)c4)n3)cc2)C1=O")
144
>>> measured_number("CCC1(CC)C(=O)N(c2ccc(-c3csc(Nc4cc(OC)c(OC)c(OC)c4)n3)cc2)C1=O")
66.1

These entries and their values trace back to paper PMC9321231.
